Experiment: Inhibition of Clostridioides difficile-specific DNA adenine methyltransferase mediated methylation using 5'-CGA TTC AAA AAG TCC CAA G-3' and 3'-GCT AAG TTT TTC AGG GTT C-5' as substrate and SAM as cosubstrate preincubated for 5 mins followed by substrate and cosubstrate addition and measured after 3 mins by MTase glo assay
Listing of entries alongside the reported pIC50.
// pIC50 is dimensionless: -log10 of concentration (M)

Please review the entries below; each comes with its answer.
>>> quantitative_readout("OC[C@H]1O[C@@H](n2cnc3c(NCCc4ccccc4)ncnc32)[C@H](O)[C@@H]1O")
5.60
>>> quantitative_readout("OC[C@H]1O[C@@H](n2cnc3c(NCc4ccc(O)cc4)ncnc32)[C@H](O)[C@@H]1O")
5.32
>>> quantitative_readout("OC[C@H]1O[C@@H](n2cnc3c(NCCCc4ccc(O)cc4)ncnc32)[C@H](O)[C@@H]1O")
6.29
>>> quantitative_readout("OC[C@H]1O[C@@H](n2cnc3c(NCCCCCc4ccccc4)ncnc32)[C@H](O)[C@@H]1O")
5.89
>>> quantitative_readout("CC(C)(C)OC(=O)N1CCC(CCCNc2ncnc3c2ncn3[C@@H]2O[C@H](CO)[C@@H](O)[C@H]2O)CC1")
6.41
>>> quantitative_readout("Nc1ccc(CNc2ncnc3c2ncn3[C@@H]2O[C@H](CO)[C@@H](O)[C@H]2O)cc1")
5.00
>>> quantitative_readout("OC[C@H]1O[C@@H](n2cnc3c(NCCCc4ccccc4)ncnc32)[C@H](O)[C@@H]1O")
6.15
>>> quantitative_readout("CC(C)(C)OC(=O)N1CCC(CCNc2ncnc3c2ncn3[C@@H]2O[C@H](CO)[C@@H](O)[C@H]2O)CC1")
6.15

## Input I am curious: what pIC50 value has been reported for Nc1ccc(CCCNc2ncnc3c2ncn3[C@@H]2O[C@H](CO)[C@@H](O)[C@H]2O)cc1 ?
## Output 5.85

## Input Looking for the measured pIC50 of CC(C)(C)OC(=O)N1CCC(CNc2ncnc3c2ncn3[C@@H]2O[C@H](CO)[C@@H](O)[C@H]2O)CC1 , can you help?
## Output 5.70

---

Experiment: Binding affinity to Clostridioides difficile-specific DNA adenine methyltransferase PDB 7RFK by MicroCal PEAQ ITC analysis
Experimental readout: pKd
Quick note: pKd values are minus log10 of concentrations in mol/L.

## Input Can you share its pKd? I mean this compound: Nc1ncnc2c1ncn2[C@@H]1O[C@H](C[C@@H](N)CC[C@H](N)C(=O)O)[C@@H](O)[C@H]1O
## Output 4.64

---

Biological target: DNMT3A-DNMT3L (Mus musculus) (UniProt O88508+Q9CWR8)
Sequence (Q9CWR8 whole entry, looked up, other chains not shown): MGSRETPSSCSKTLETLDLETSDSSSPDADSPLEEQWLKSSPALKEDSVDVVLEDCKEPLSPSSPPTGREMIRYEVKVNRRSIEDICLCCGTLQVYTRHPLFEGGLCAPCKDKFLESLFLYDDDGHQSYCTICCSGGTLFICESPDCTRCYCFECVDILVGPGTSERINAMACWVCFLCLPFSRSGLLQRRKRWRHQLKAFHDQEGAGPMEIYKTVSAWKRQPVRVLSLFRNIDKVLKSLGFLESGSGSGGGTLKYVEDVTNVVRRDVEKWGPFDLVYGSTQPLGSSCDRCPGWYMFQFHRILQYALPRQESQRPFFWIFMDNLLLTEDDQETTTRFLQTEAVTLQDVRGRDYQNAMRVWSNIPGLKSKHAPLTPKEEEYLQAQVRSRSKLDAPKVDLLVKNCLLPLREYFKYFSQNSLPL
Experiment: Inhibition of mouse DNMT3A/DNMT3L using 5'-G CATGCGTTCTAATTAGAAUGCATG-3' and 3'-GTA CGS AAG ATT AAT CTT GCG TAC G-5' as substrate and SAM as cosubstrate at 10 uM incubated for 1 hr
Format: protein-complex assay
Calls of active or inactive are those of the source. The rule behind the calls is not given here.
Respond using exactly one of the listed classes: t = active, f = inactive

>>> group_label("Nc1ncnc2c1ncn2[C@@H]1O[C@H](C[C@@H](N)CC[C@H](N)C(=O)O)[C@@H](O)[C@H]1O [SINEFUNGIN]")
"t"

## Input // return assay outcome for OC[C@H]1O[C@@H](n2cnc3c(NCCCc4ccc(O)cc4)ncnc32)[C@H](O)[C@@H]1O
## Output f

## Input Field: outcome | Entry: CC(C)(C)OC(=O)N1CCC(CCCNc2ncnc3c2ncn3[C@@H]2O[C@H](CO)[C@@H](O)[C@H]2O)CC1
## Output f

## Input // param item: CC(C)(C)OC(=O)N1CCC(CCNc2ncnc3c2ncn3[C@@H]2O[C@H](CO)[C@@H](O)[C@H]2O)CC1 ; yields the recorded call
## Output f
